Assay: Mean number of Plasmodium berghei ANKA […] production in Anopheles stephensi mosquito after treatment with the compound at a dosage 50 umol.1/kg
Assay type: functional, Culicidae
reported-property: Activity
Give a plain numeric answer without units written out.

Past entries and their recorded results:
compound: COc1cc(NC(C)CCCN2C(=O)CNC2(C)C)c2ncccc2c1 (configuration not stated)
Activity: 0

compound: COc1cc(NC(C)CCCN2C(=O)[C@H](C(C)C)NC2(C)C)c2ncccc2c1 (some centres not stated)
Activity: 0.9

compound: COc1cc(NC(C)CCCN2C(=O)[C@H](C(C)C)NC23CCCCC3)c2ncccc2c1 (some centres not stated)
Activity: 0.4

compound: COc1cc(NC(C)CCCN2C(=O)[C@H](C)NC23CCCCC3)c2ncccc2c1 (some centres not stated)
Activity: 0

compound: COc1cc(NC(C)CCCN2C(=O)[C@H](Cc3ccccc3)NC2(C)C)c2ncccc2c1 (some centres not stated)
Activity: 0

compound: COc1cc(NC(C)CCCN2C(=O)CNC23CCCCC3)c2ncccc2c1 (configuration not stated)
Activity: 0

Any idea what its Activity is? The compound is COc1cc(NC(C)CCCN)c2ncccc2c1 (configuration not stated)
0

// query Activity value for entry COc1cc(NC(C)CCCN2C(=O)[C@H](Cc3ccccc3)NC23CCCC3)c2ncccc2c1 (some centres not stated)
0

# Activity lookup, item COc1cc(NC(C)CCCN2C(=O)[C@H](Cc3ccccc3)NC23CCCCCC3)c2ncccc2c1 (some centres not stated)
0

State the recorded Activity for this entry: COc1cc(NC(C)CCCN2C(=O)[C@H](Cc3ccccc3)NC23CCCCC3)c2ncccc2c1 (some centres not stated)
0

Param item = COc1cc(NC(C)CCCN2C(=O)[C@H](C(C)C)NC23CCCC3)c2ncccc2c1 (some centres not stated) ; retrieve measured Activity.
0.5

I'd like to know its Activity. The compound in question is COc1cc(NC(C)CCCN2C(=O)[C@H](CC(C)C)NC2(C)C)c2ncccc2c1 (some centres not stated)
1

---

Assay: Percent hydrolysis to the corresponding amino acid product 3, in pH 7.4 phosphate buffer at 37C after 3 days of treatment with the compound
Assay type: ADME, Homo sapiens
Conditions: read-out: Hydrolysis
reported-property: degraded at 72 h (%)
Write the number in % without appending the unit.

Below, 3 compounds whose answers are already recorded.
compound: COc1cc(NC(C)CCCN2C(=O)[C@H](C(C)C)NC23CCCCC3)c2ncccc2c1 (some centres undefined)
degraded at 72 h, %: 8
//
compound: COc1cc(NC(C)CCCN2C(=O)[C@H](CC(C)C)NC2(C)C)c2ncccc2c1 (some centres undefined)
degraded at 72 h, %: 10
//
compound: COc1cc(NC(C)CCCN2C(=O)[C@H](Cc3ccccc3)NC2(C)C)c2ncccc2c1 (some centres undefined)
degraded at 72 h, %: 6

I have this compound here, COc1cc(NC(C)CCCN2C(=O)[C@H](Cc3ccccc3)NC23CCCCCC3)c2ncccc2c1 (some centres undefined) , and I need its recorded degraded at 72 h.
10

---

Test: Percent hydrolysis to the corresponding amino acid product 3, in 80% human plasma at 37C after 3 days of treatment with the compound
Assay type: ADME, cell-free
Conditions: 72 h
reported-property: Hydrolysis (%)
Lab book: enter the figure in %, no units written.

Here's what some known entries look like.
compound: COc1cc(NC(C)CCCN2C(=O)[C@H](Cc3ccccc3)NC23CCCC3)c2ncccc2c1 (some centres undefined)
Hydrolysis [%]: 3
//
compound: COc1cc(NC(C)CCCN2C(=O)[C@H](C)NC23CCCCC3)c2ncccc2c1 (some centres undefined)
Hydrolysis [%]: 9
//
compound: COc1cc(NC(C)CCCN2C(=O)[C@H](C(C)C)NC23CCCC3)c2ncccc2c1 (some centres undefined)
Hydrolysis [%]: 5

Suppose we examine the compound COc1cc(NC(C)CCCN2C(=O)CNC2(C)C)c2ncccc2c1 (centres undefined) ; what Hydrolysis value has been reported?
16
